System tested: human ALK2 R206H (Homo sapiens, UniProt Q04771, R206H)
Sequence (Q04771 21-509 R206H): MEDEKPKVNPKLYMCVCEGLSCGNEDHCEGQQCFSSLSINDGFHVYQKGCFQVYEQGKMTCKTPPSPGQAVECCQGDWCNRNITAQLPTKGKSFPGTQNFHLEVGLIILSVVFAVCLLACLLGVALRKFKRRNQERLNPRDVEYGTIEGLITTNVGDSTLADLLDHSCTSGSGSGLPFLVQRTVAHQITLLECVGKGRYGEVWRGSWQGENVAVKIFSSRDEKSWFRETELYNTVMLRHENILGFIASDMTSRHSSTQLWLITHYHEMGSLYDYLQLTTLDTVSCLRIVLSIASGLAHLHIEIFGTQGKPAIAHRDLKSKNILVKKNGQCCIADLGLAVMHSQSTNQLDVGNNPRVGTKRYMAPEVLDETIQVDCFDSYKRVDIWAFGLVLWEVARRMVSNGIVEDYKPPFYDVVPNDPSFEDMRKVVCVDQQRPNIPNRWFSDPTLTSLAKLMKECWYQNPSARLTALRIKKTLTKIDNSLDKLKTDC
Assay info: Cell-based ALK2-R206H cell activity assay (Smad1-Ser463/Ser465 phosphorylation by AlphaLISA in HEK293-ALK2-R206H cells)
Conditions used: phospho-Smad1 AlphaLISA, read-out: Cell Line (Cell Assay, IC50 class)
Assay endpoint: IC50

These recorded examples may help you get a feel for the data.
1. Cn1cnc(-c2cc3c(N4CCN(C(=O)OC5COC5)CC4)ccnc3[nH]2)c1	≤ 100 nM
2. N#Cc1c(-c2nc3c(s2)COCC3)[nH]c2nccc(N3CCN(C(=O)OCC(F)F)CC3)c12	≤ 100 nM

Batch request: IC50 per item, same order as input.
1. COc1nc(-c2cc3c(N4CCN(C(=O)OC5COC5)CC4)ccnc3[nH]2)cs1
2. Cn1cc(-c2[nH]c3nccc(N4CCN(C(=O)C5CC5)CC4)c3c2C#N)cn1
3. O=C(C1CC1)N1CCN(c2ccnc3[nH]c(-c4ccc(N5CCN6CCOCC6C5)cc4)cc23)CC1 (centres unmarked)

(A)
1: 100 to 500 nM; 2: 100 to 500 nM; 3: ≤ 100 nM

Batch request: IC50 per item, same order as input.
1. Cc1nc(-c2cc3c(N4CCN(C(=O)O[C@H]5C[C@H](F)C5)CC4)ccnc3[nH]2)cs1
2. Cc1nc(-c2cc3c(N4CCN(C(=O)OCC(F)F)CC4)ccnc3[nH]2)cn1C
3. CCOC(=O)N1CCN(c2ccnc3[nH]c(-c4ncc(C(C)C)s4)cc23)CC1

(A)
≤ 100 nM
≤ 100 nM
≤ 100 nM
